For each record, write down the corresponding inhibition.
# protocol: 384-well plate pilot, post-Golgi transport modulator project, inhibition of yeast transport mutant growth (AID 636)
# experimental.parameters: absorbance 615 nm, about 18 h, active compounds read high
The source made the active and inactive calls. Rule as the data show it: active = inhibition above about 31%; inactive = the rest.

Worked examples, 3 compounds total:
1. CCN(CC)C(=O)Cn1c(=O)n(Cc2ccccc2Cl)c2c1c(=O)n(C)c(=O)n2C
-0.93% (inactive)
2. COC(=O)c1[nH]c2cc(OC)ccc2c1NC(=O)CN1CCOCC1
0% (inactive)
3. C[C@H](NC(=O)NCc1cccs1)C(=O)O
-3.87% (inactive)

Value sought for every listed compound: inhibition.
1. CCOC(=O)Cc1nnc2c(Nc3ccc(C)cc3)nc3nonc3n12
2. COc1ccc(Cn2c(CCCO)nc3ccccc32)cc1OC
3. CC(C(=O)Nc1ccccc1-c1ccccc1)N1CCOCC1 (stereo unspecified)
4. COc1cccc(NC(=O)N2CCCC2C(=O)NC(C)C)c1 (stereo unspecified)

-4% (inactive)
-7.67% (inactive)
-10.6% (inactive)
-5.07% (inactive)

Would you be so kind as to report inhibition for each listed record?
1. O=C(O)c1cc2c(s1)CCCC2
2. CC1=CCC(C(C)(C)NC(=O)c2ccccc2)C/C1=N\O (stereo unspecified)

1. -1.03% (inactive)
2. -0.81% (inactive)

Could you tell me inhibition for each of these compounds? They are listed below.
1. Cc1cccc2cc(CN(CCCO)C(=O)Nc3ccc(Cl)cc3)c(=O)[nH]c12
2. Cc1ccc(-c2nc(CS(=O)CC(=O)NCCN(CC(C)C)CC(C)C)c(C)o2)cc1 (stereo unspecified)

1. -5.32% (inactive)
2. -5.2% (inactive)
